Test system: U-2 OS
METHOD_DESCRIPTION: cell painting activity score (Mahalanobis distance from DMSO wells); higher = stronger morphological phenotype
CONDITION_CONTEXT: 5 µM; 24 h
Tick Yes if cell painting activity score is 10 or greater. Tick No if cell painting activity score is less than 10.

| COMPOUND | TESTED_ON | LABEL_VALUE |
| --- | --- | --- |
| O.O=P1(N(CCCl)CCCl)NCCCO1 (stereo not given) | U-2 OS | No |
| O=C1C=CC(=O)N1c1ccccc1 | U-2 OS | Yes |
| COc1cccc2c1C(=O)c1c(O)c3c(c(O)c1C2=O)C[C@@](O)(C(=O)CO)C[C@@H]3O[C@H]1C[C@H](N)[C@H](O)[C@H](C)O1 | U-2 OS | Yes |

In: Check the entry CC1(C)[C@@H](O[C@H]2O[C@H](C(=O)O)[C@@H](O)[C@H](O)[C@H]2O[C@@H]2O[C@H](C(=O)O)[C@@H](O)[C@H](O)[C@H]2O)CC[C@]2(C)[C@H]3C(=O)C=C4[C@@H]5C[C@@](C)(C(=O)O)CC[C@]5(C)CC[C@@]4(C)[C@]3(C)CC[C@@H]12.N : does cell painting activity score equal or exceed 10?
Out: No

In: And what about the compound Cc1ccc(C(=O)N(CCCN)[C@@H](c2oc3cc(Cl)ccc3c(=O)c2Cc2ccccc2)C(C)C)cc1.Cl ?
Out: Yes

In: Same question, Oc1cc(O)cc(/C=C/c2ccc(O)c(O)c2)c1 this time
Out: No

In: Check Cc1ccc(S(=O)(=O)/C=C/C#N)cc1 too.
Out: Yes

In: Do the same for Cc1onc(C(=O)N2CCN(C(c3ccc(Cl)cc3)c3ccc(Cl)cc3)CC2)c1[N+](=O)[O-] please
Out: No
